Test: Half-life by the HPLC using a C18 reversed-phase column at pH 7.4(sodium phosphate buffer) and 37 degree C.
Format: ADME
Measured Attribute: half-life (days)

a. CCOC(=O)OCC(CO)CCn1cnc2cnc(N)nc21 (stereo not drawn)
b. Nc1ncc2ncn(CCC3COC(=O)OC3)c2n1
c. CCCOC(=O)OCC(CO)CCn1cnc2cnc(N)nc21 (stereo not drawn)
List by increasing half-life. Kindly provide the labels arranged according to the requested ordering.
b, a, c
(b: 0.12 days, a: 7 days, c: 10 days)

###

Species: Rattus norvegicus
Test: The total amount of penciclovir recovered in the urine over a 48-h period was determined by HPLC using a C18 reversed-phase column in rat.
Type: ADME, organism-based
Settings: in vivo
Measured Attribute: urinary penciclovir recovery, % of dose (%)

Take a look at these entries with their results.
# Compound, urinary penciclovir recovery, % of dose, %
rows = [
    ("CCCCCOC(=O)OCC(CO)CCn1cnc2cnc(N)nc21 (stereo unspecified)", 38),
    ("Nc1nc2c(ncn2CCC(CO)CO)c(=O)[nH]1 [PENCICLOVIR]", 9),
    ("CC(C)OC(=O)OCC(CO)CCn1cnc2cnc(N)nc21 (stereo unspecified)", 40),
    ("CC(C)CCOC(=O)OCC(CO)CCn1cnc2cnc(N)nc21 (stereo unspecified)", 40),
]

I. CC(C)COC(=O)OCC(CO)CCn1cnc2cnc(N)nc21 (stereo unspecified)
II. Nc1ncc2ncn(CCC3COC(=O)OC3)c2n1
From the items above, decide which of I and II has the lower urinary penciclovir recovery, % of dose reading. Let me know the label of the one you choose.
II
